# System: velvetleaf (Abutilon theophrasti)
# method: Test Example 2: soil surface treatment of field
# Assay type: in vivo
# conditions used: soil surface spray, dosage 500 g/ha, 19 days after application
reported endpoint: growth of velvetleaf (herbicidal activity)

Recorded results for 5 molecules are shown here.
CCCOC(=O)COc1ncccc1Oc1cc(-n2c(=O)cc(C(F)(F)F)n(C)c2=O)c(F)cc1Cl [Compound 7-48]    completely controlled
COC(=O)C(C)Oc1cccnc1Oc1cc(-n2c(=O)cc(C(F)(F)F)n(C)c2=O)c(F)cc1Cl (stereo not drawn) [Compound 2-2]    completely controlled
COC(=O)COc1nc(C)ncc1Oc1cc(-n2c(=O)cc(C(F)(F)F)n(C)c2=O)c(F)cc1Cl [Compound 4-85]    completely controlled
COC(=O)COc1ncncc1Oc1cc(-n2c(=O)cc(C(F)(F)F)n(C)c2=O)c(F)cc1Cl [Compound 4-7]    completely controlled
COC(=O)C(C)Oc1cccc(Oc2cc(-n3c(=O)cc(C(F)(F)F)n(C)c3=O)c(F)cc2Cl)n1 (stereo not drawn) [Compound 2-42]    completely controlled

Q) Quick check: growth of velvetleaf (herbicidal activity) of CC(C)=NOC(=O)COc1ncccc1Oc1cc(-n2c(=O)cc(C(F)(F)F)n(C)c2=O)c(F)cc1Cl [Compound 7-118] ?
A) completely controlled

Q) Quick check: growth of velvetleaf (herbicidal activity) of CCCCCOC(=O)COc1ncccc1Oc1cc(-n2c(=O)cc(C(F)(F)F)n(C)c2=O)c(F)cc1Cl [Compound 7-50] ?
A) completely controlled

Q) Quick check: growth of velvetleaf (herbicidal activity) of COC(=O)COc1ncccc1Oc1cc(-n2c(=O)cc(C(F)(F)F)n(C)c2=O)c(F)cc1Br [Compound 9-7] ?
A) completely controlled

Q) Quick check: growth of velvetleaf (herbicidal activity) of Cn1c(C(F)(F)F)cc(=O)n(-c2cc(Oc3cccnc3OCC(=O)O)c(Cl)cc2F)c1=O [Compound 7-6] ?
A) completely controlled

Q) Quick check: growth of velvetleaf (herbicidal activity) of COC(=O)C(C)Oc1cc(OC)nc(Oc2cc(-n3c(=O)cc(C(F)(F)F)n(C)c3=O)c(F)cc2Cl)n1 (stereo not drawn) [Compound 1-42] ?
A) completely controlled

Q) Quick check: growth of velvetleaf (herbicidal activity) of COC(=O)COc1cccnc1Oc1cc(-n2c(=O)cc(C(F)(F)F)n(C)c2=O)c(F)cc1Cl [Compound 2-7] ?
A) completely controlled

Q) Quick check: growth of velvetleaf (herbicidal activity) of COC(=O)C(C)Oc1cc(Oc2cc(-n3c(=O)cc(C(F)(F)F)n(C)c3=O)c(F)cc2Cl)ncn1 (stereo not drawn) [Compound 3-12] ?
A) completely controlled

Q) Quick check: growth of velvetleaf (herbicidal activity) of COC(=O)[C@@H](C)Oc1n[nH]c(C)c1Oc1cc(-n2c(=O)cc(C(F)(F)F)n(C)c2=O)c(F)cc1Cl [Compound 5-12-R] ?
A) completely controlled

Q) Quick check: growth of velvetleaf (herbicidal activity) of COC(=O)COC(=O)COc1ncccc1Oc1cc(-n2c(=O)cc(C(F)(F)F)n(C)c2=O)c(F)cc1Cl [Compound 7-119] ?
A) completely controlled

Q) Quick check: growth of velvetleaf (herbicidal activity) of CCOC(=O)COc1ncccc1Oc1cc(-n2c(=O)cc(C(F)(F)F)n(C)c2=O)c(F)cc1Cl [Compound 7-8] ?
A) completely controlled

* * *

# Test system: ivyleaf morningglory (Ipomoea hederacea)
# method: Test Example 2: soil surface treatment of field
# Type: in vivo
# conditions used: soil surface spray, dosage 500 g/ha, 19 days after application
reported endpoint: growth of ivyleaf morningglory (herbicidal activity)

Recorded results for 5 compounds are shown here.
COC(=O)C(C)Oc1ccnc(Sc2cc(-n3c(=O)cc(C(F)(F)F)n(C)c3=O)c(F)cc2Cl)n1 (stereo not drawn)    completely controlled
COC(=O)COc1cccc(Oc2cc(-n3c(=O)cc(C(F)(F)F)n(C)c3=O)c(F)cc2Cl)n1    completely controlled
COC(=O)COc1nc(C)ncc1Oc1cc(-n2c(=O)cc(C(F)(F)F)n(C)c2=O)c(F)cc1Cl    completely controlled
COC(=O)COc1ncccc1Oc1cc(-n2c(=O)cc(C(F)(F)F)n(C)c2=O)c(F)cc1Br    completely controlled
COC(=O)C(C)Oc1ccc(Oc2cc(-n3c(=O)cc(C(F)(F)F)n(C)c3=O)c(F)cc2Cl)cn1 (stereo not drawn)    completely controlled

Q) Quick check: growth of ivyleaf morningglory (herbicidal activity) of `COC(=O)[C@H](C)Oc1n[nH]c(C)c1Oc1cc(-n2c(=O)cc(C(F)(F)F)n(C)c2=O)c(F)cc1Cl` ?
A) completely controlled

Q) Quick check: growth of ivyleaf morningglory (herbicidal activity) of `Cn1c(C(F)(F)F)cc(=O)n(-c2cc(Oc3cccnc3OCC(=O)OC3CCCC3)c(Cl)cc2F)c1=O` ?
A) completely controlled

Q) Quick check: growth of ivyleaf morningglory (herbicidal activity) of COC(=O)C(C)Oc1cccnc1Oc1cc(-n2c(=O)cc(C(F)(F)F)n(C)c2=O)c(F)cc1Cl (stereo not drawn) ?
A) completely controlled

Q) Quick check: growth of ivyleaf morningglory (herbicidal activity) of COC(=O)C(C)Oc1ccnc(Oc2cc(-n3c(=O)cc(C(F)(F)F)n(C)c3=O)c(F)cc2Cl)n1 (stereo not drawn) ?
A) completely controlled

Q) Quick check: growth of ivyleaf morningglory (herbicidal activity) of `COC(=O)COc1ncccc1Oc1cc(-n2c(=O)cc(C(F)(F)F)n(C)c2=O)c(F)cc1C#N` ?
A) completely controlled

Q) Quick check: growth of ivyleaf morningglory (herbicidal activity) of `CCCCCOC(=O)COc1ncccc1Oc1cc(-n2c(=O)cc(C(F)(F)F)n(C)c2=O)c(F)cc1Cl` ?
A) completely controlled

Q) Quick check: growth of ivyleaf morningglory (herbicidal activity) of COC(=O)C(C)Oc1nccc(Oc2cc(-n3c(=O)cc(C(F)(F)F)n(C)c3=O)c(F)cc2Cl)n1 (stereo not drawn) ?
A) completely controlled

Q) Quick check: growth of ivyleaf morningglory (herbicidal activity) of COC(=O)C(C)Oc1ncccc1Oc1cc(-n2c(=O)cc(C(F)(F)F)n(C)c2=O)c(F)cc1Cl (stereo not drawn) ?
A) completely controlled

Q) Quick check: growth of ivyleaf morningglory (herbicidal activity) of COC(=O)C(C)Oc1cc(OC)nc(Oc2cc(-n3c(=O)cc(C(F)(F)F)n(C)c3=O)c(F)cc2Cl)n1 (stereo not drawn) ?
A) completely controlled

Q) Quick check: growth of ivyleaf morningglory (herbicidal activity) of `CC(C)=NOC(=O)COc1ncccc1Oc1cc(-n2c(=O)cc(C(F)(F)F)n(C)c2=O)c(F)cc1Cl` ?
A) completely controlled

* * *

reported endpoint: melting point (°C)
Give a bare numeral; the unit °C is implied.

Recorded results for 5 compounds are shown here.
COC(=O)C(C)Oc1ccnc(Sc2cc(-n3c(=O)cc(C(F)(F)F)n(C)c3=O)c(F)cc2Cl)n1 (stereo not drawn)    60.2
COC(=O)C(C)Oc1cc(OC)nc(Oc2cc(-n3c(=O)cc(C(F)(F)F)n(C)c3=O)c(F)cc2Cl)n1 (stereo not drawn)    71.2
COC(=O)COc1ncccc1Oc1cc(-n2c(=O)cc(C(F)(F)F)n(C)c2=O)c(F)cc1Cl    52.2
COC(=O)COc1ncncc1Oc1cc(-n2c(=O)cc(C(F)(F)F)n(C)c2=O)c(F)cc1Cl    52.5
COC(=O)COc1ncccc1Oc1cc(-n2c(=O)cc(C(F)(F)F)n(C)c2=O)c(F)cc1C#N    173.1

The record that follows has no melting point shown yet.
Q) Quick check: melting point of `COC(=O)COc1cncnc1Oc1cc(-n2c(=O)cc(C(F)(F)F)n(C)c2=O)c(F)cc1Cl` ?
A) 62.5

* * *

# Test system: ivyleaf morningglory (Ipomoea hederacea)
# method: Test Example 1: foliar treatment of field
# Format: in vivo
# conditions used: foliar spray, dosage 125 g/ha, 16 days after application
reported endpoint: growth of ivyleaf morningglory (herbicidal activity)

Recorded results for 5 compounds are shown here.
COC(=O)COc1n[nH]c(C)c1Oc1cc(-n2c(=O)cc(C(F)(F)F)n(C)c2=O)c(F)cc1Cl [Compound 5-17]    completely controlled
COC(=O)[C@H](C)Oc1n[nH]c(C)c1Oc1cc(-n2c(=O)cc(C(F)(F)F)n(C)c2=O)c(F)cc1Cl [Compound 5-12-S]    completely controlled
CCCCCOC(=O)COc1ncccc1Oc1cc(-n2c(=O)cc(C(F)(F)F)n(C)c2=O)c(F)cc1Cl [Compound 7-50]    completely controlled
COC(=O)C(C)Oc1cccnc1Oc1cc(-n2c(=O)cc(C(F)(F)F)n(C)c2=O)c(F)cc1Cl (centres unmarked) [Compound 2-2]    completely controlled
COC(=O)COc1ncncc1Oc1cc(-n2c(=O)cc(C(F)(F)F)n(C)c2=O)c(F)cc1Cl [Compound 4-7]    completely controlled

Q) Quick check: growth of ivyleaf morningglory (herbicidal activity) of COC(=O)C(C)Oc1cccc(Oc2cc(-n3c(=O)cc(C(F)(F)F)n(C)c3=O)c(F)cc2Cl)n1 (centres unmarked) [Compound 2-42] ?
A) completely controlled

Q) Quick check: growth of ivyleaf morningglory (herbicidal activity) of COC(=O)C(C)Oc1cc(Oc2cc(-n3c(=O)cc(C(F)(F)F)n(C)c3=O)c(F)cc2Cl)ncn1 (centres unmarked) [Compound 3-12] ?
A) completely controlled

Q) Quick check: growth of ivyleaf morningglory (herbicidal activity) of COC(=O)C(C)Oc1cc(OC)nc(Oc2cc(-n3c(=O)cc(C(F)(F)F)n(C)c3=O)c(F)cc2Cl)n1 (centres unmarked) [Compound 1-42] ?
A) completely controlled

Q) Quick check: growth of ivyleaf morningglory (herbicidal activity) of COC(=O)COc1ncccc1Oc1cc(-n2c(=O)cc(C(F)(F)F)n(C)c2=O)c(F)cc1Br [Compound 9-7] ?
A) completely controlled

Q) Quick check: growth of ivyleaf morningglory (herbicidal activity) of COC(=O)C(C)Oc1ccc(Oc2cc(-n3c(=O)cc(C(F)(F)F)n(C)c3=O)c(F)cc2Cl)cn1 (centres unmarked) [Compound 7-12] ?
A) completely controlled

Q) Quick check: growth of ivyleaf morningglory (herbicidal activity) of COC(=O)C(C)Oc1ccnc(Oc2cc(-n3c(=O)cc(C(F)(F)F)n(C)c3=O)c(F)cc2Cl)n1 (centres unmarked) [Compound 1-2] ?
A) completely controlled

Q) Quick check: growth of ivyleaf morningglory (herbicidal activity) of COC(=O)[C@@H](C)Oc1n[nH]c(C)c1Oc1cc(-n2c(=O)cc(C(F)(F)F)n(C)c2=O)c(F)cc1Cl [Compound 5-12-R] ?
A) completely controlled

Q) Quick check: growth of ivyleaf morningglory (herbicidal activity) of COC(=O)C(C)Oc1ncccc1Oc1cc(-n2c(=O)cc(C(F)(F)F)n(C)c2=O)c(F)cc1Cl (centres unmarked) [Compound 7-2] ?
A) completely controlled

Q) Quick check: growth of ivyleaf morningglory (herbicidal activity) of COC(=O)COc1ncccc1Oc1cc(-n2c(=O)cc(C(F)(F)F)n(C)c2=O)c(F)cc1[N+](=O)[O-] [Compound 9-45] ?
A) completely controlled
